- system: UniProt P18031
- protocol.notes: Inhibition of human recombinant PTP1B by Lineweaver-Burke plot

- compound: "O=C1C[C@]2(O)c3ccccc3O[C@H]3c4cc(O)ccc4-c4c(O)cc(O)c1c4[C@@H]32 [OHIOENSIN F]"
  system: "UniProt P18031"
  unit.name: "µM"
  Ki: 1.5

----------
Form field: pIC50 (one value per entry).
- system: Tyrosine-protein phosphatase non-receptor type 1 (Homo sapiens, UniProt P18031)
- Sequence (P18031 whole entry): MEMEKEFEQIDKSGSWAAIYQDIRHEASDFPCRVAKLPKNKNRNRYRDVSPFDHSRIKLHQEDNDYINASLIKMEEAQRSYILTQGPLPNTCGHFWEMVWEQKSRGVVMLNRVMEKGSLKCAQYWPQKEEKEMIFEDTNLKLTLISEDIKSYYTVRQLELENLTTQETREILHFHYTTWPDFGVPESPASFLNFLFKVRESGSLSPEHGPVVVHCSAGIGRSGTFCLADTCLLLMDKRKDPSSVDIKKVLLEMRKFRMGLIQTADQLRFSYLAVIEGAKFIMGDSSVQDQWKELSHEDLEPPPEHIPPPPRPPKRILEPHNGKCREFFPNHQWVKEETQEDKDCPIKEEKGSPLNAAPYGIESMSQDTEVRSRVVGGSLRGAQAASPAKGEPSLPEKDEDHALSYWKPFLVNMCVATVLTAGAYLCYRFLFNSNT
- protocol.notes: Inhibition of human recombinant PTP1B
pIC50: −log10 of the molar value.
value.type: pIC50

- compound: "O=C1C[C@]2(O)c3ccccc3O[C@H]3c4cc(O)ccc4-c4c(O)cc(O)c1c4[C@@H]32 [OHIOENSIN F]"
  measured.result: 5.46
- compound: "O=C1C[C@@H]2c3ccccc3O[C@H]3c4cc(O)ccc4-c4c(O)cc(O)c1c4[C@H]23 [OHIOENSIN A]"
  measured.result: 5.37
- compound: "O=C1c2c(O)cc(O)c3c2[C@@H]2[C@@H](c4ccccc4O[C@H]2c2cccc(O)c2-3)[C@H]1O [OHIOENSIN G]"
  measured.result: 5.25
- compound: "COc1cc(O)c2c3c1-c1c(O)cccc1[C@@H]1Oc4ccccc4[C@@H](CC2=O)[C@@H]31 [OHIOENSIN C]"
  measured.result: 5.12
